ASSAYED_TARGET: human orexin-2 receptor (Homo sapiens (Human), UniProt O43614)
Sequence (O43614 whole entry): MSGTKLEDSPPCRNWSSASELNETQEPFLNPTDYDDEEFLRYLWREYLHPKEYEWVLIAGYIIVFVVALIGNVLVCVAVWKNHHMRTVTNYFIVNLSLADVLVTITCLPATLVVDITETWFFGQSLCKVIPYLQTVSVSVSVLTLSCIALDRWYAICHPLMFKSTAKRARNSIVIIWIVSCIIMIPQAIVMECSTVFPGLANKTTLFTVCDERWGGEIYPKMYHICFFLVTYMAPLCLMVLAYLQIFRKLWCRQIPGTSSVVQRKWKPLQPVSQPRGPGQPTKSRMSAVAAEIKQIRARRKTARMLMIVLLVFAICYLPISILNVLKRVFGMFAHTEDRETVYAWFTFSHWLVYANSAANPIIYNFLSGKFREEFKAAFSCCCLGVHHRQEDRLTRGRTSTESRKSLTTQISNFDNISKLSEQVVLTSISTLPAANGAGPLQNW
ASSAY_METHOD_TEXT: FLIPR Ca2+ Flux Assay, orexin-2 receptor
Type: cell-based
DETAILS: CHO cells expressing the human orexin-2 receptor; agonist 70 pM Ala-6,12 human orexin-A; read-out: hOX2R FLIPR IC50
Property: IC50; scope: individual molecules

>  <SMILES_TEXT>
COc1c(C#N)ccnc1O[C@@H]1CC[C@@H](C)N(C(=O)c2ccc(C)cc2-n2nccn2)C1

>  <IC50 (nM)>
21

$$$$
>  <SMILES_TEXT>
COc1c(C#N)ccnc1O[C@@H]1CC[C@@H](C)N(C(=O)c2cccc(F)c2-n2nccn2)C1

>  <IC50 (nM)>
19

$$$$
>  <SMILES_TEXT>
Cc1c(C#N)ccnc1O[C@@H]1CC[C@@H](C)N(C(=O)c2ccc(F)cc2-n2nccn2)C1

>  <IC50 (nM)>
12

$$$$
>  <SMILES_TEXT>
Cc1c(C#N)ccnc1O[C@@H]1CC[C@@H](C)N(C(=O)c2nscc2-c2ccccc2)C1

>  <IC50 (nM)>
22

$$$$
>  <SMILES_TEXT>
Cc1nc(C(=O)N2C[C@H](Oc3nccc(C#N)c3C)CC[C@H]2C)c(-c2ccc(F)cc2)s1

>  <IC50 (nM)>
48

$$$$
>  <SMILES_TEXT>
Cc1ccc(C(=O)N2C[C@H](Oc3nccc(C#N)c3C)CC[C@H]2C)c(-c2ncccn2)c1

>  <IC50 (nM)>
37

$$$$
>  <SMILES_TEXT>
Cc1c(C#N)ccnc1O[C@@H]1CC[C@@H](C)N(C(=O)c2cccnc2-c2ccccc2)C1

>  <IC50 (nM)>
26

$$$$
>  <SMILES_TEXT>
Cc1c(C#N)ccnc1O[C@@H]1CC[C@@H](C)N(C(=O)c2ccccc2-n2nccn2)C1

>  <IC50 (nM)>
8

$$$$

The measured values listed here are drawn from patent US9546152B2.
